# PROCEDURE TEXT: NCI Yeast Anticancer Drug Screen. Data for the mec2-1 strain (AID 157)
# STUDY CONDITIONS: S. cerevisiae mec2-1 strain, at 50.0 µM, hits give high values
Compounds without any hit were thinned out: in the full panel of roughly 79,000, 15% have a hit. Activity calls are given as the source filed them. No stated cut-off is given here; in the data, active means growth inhibition above about 70%; inactive means the rest.
The following molecules are listed with their measured growth inhibition values.

Input line: What growth inhibition value was documented for this molecule, CCCCCCCCc1cc(CN2CCOCC2)c(O)c(CN2CCOCC2)c1 ?
Output line: 14.6% (inactive)

Input line: What growth inhibition value was documented for this molecule, CCOC(=O)/C=C(/C)N ?
Output line: -7.25% (inactive)

Input line: What growth inhibition value was documented for this molecule, Cc1c(C)c(CSC#N)c(C)c(C)c1CSC#N ?
Output line: -13.6% (inactive)

Input line: What growth inhibition value was documented for this molecule, CCO/C=N/c1oc(-c2ccccc2)nc1C#N ?
Output line: 4.95% (inactive)

Input line: What growth inhibition value was documented for this molecule, Cc1nc2ccccn2c1N=Nc1ccc(C(=O)NN)cc1 ?
Output line: -15.1% (inactive)

Input line: What growth inhibition value was documented for this molecule, CCOC(=O)/C(C#N)=C/C=C1C=CN(C)C=C1 ?
Output line: -4.4% (inactive)

Input line: What growth inhibition value was documented for this molecule, CNNC(=NS(=O)(=O)c1cc(C#N)c(NNC)cc1S)NNC ?
Output line: -3.95% (inactive)

Input line: What growth inhibition value was documented for this molecule, CC(C)CCCC(C)C1CCC2C3CCC4CC(N5CCCCC5)CCC4(C)C3CCC12C (stereo not given) ?
Output line: -9.6% (inactive)

* * *

# PROCEDURE TEXT: NCI Yeast Anticancer Drug Screen. Data for the rad50 strain (AID 155);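 further: 0% = growth of vehicle-only cultures of the same strain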
# STUDY CONDITIONS: S. cerevisiae rad50 strain growth inhibition; at 50.0 µM; hits give high values
This is part of a sample that, as a whole, favours compounds with a hit. Of some 79,000 tested, about 15% had one in any assay. The source made the active and inactive calls. Cut-off read from the data, not from the text of the source: active = growth inhibition above about 70%; inactive = the rest.
MEASURE: growth inhibition

Sample records with growth inhibition:
{"MOLECULE": "CC(=O)N(C)Nc1ccccc1", "MEAS VALUE": "2.45% (inactive)"}
{"MOLECULE": "O=C(CCc1cc(O)cc(O)c1)NCCc1cc(OCc2ccccc2)cc(OCc2ccccc2)c1", "MEAS VALUE": "28.7% (inactive)"}
{"MOLECULE": "NCCCn1cnc2c(N)ncnc21", "MEAS VALUE": "8.95% (inactive)"}
{"MOLECULE": "ClC1CC2CCC1C2Br (centres undefined) (tested in a mixture with another compound)", "MEAS VALUE": "-19.6% (inactive)"}

Input line: What growth inhibition value was documented for this molecule, CO/C(=N\N=C\c1cccc(Cl)c1)c1ccncc1 ?
Output line: 6.35% (inactive)

Input line: What growth inhibition value was documented for this molecule, Nc1cccc(N)n1.[Cu+2] ?
Output line: -20.1% (inactive)

Input line: What growth inhibition value was documented for this molecule, Cc1cncc(C)c1P(=O)(O)O ?
Output line: -10.3% (inactive)

* * *

The following molecules are listed with their measured growth inhibition values.
# PROCEDURE TEXT: NCI Yeast Anticancer Drug Screen. Data for the mlh1 rad18 strain (AID 175)
# STUDY CONDITIONS: S. cerevisiae mlh1 rad18 strain growth inhibition; at 50.0 µM; hits give high values
Compounds without any hit were thinned out: in the full panel of roughly 79,000, 15% have a hit.
Provide only the numeric value, understood in %.

{"MOLECULE": "CC(C)n1ncc2c(N)ncnc21", "UNIT TEXT": "%", "MEAS VALUE": -3.8}
{"MOLECULE": "Cc1[nH]c(=O)nc(N(CCO)/N=C/c2ccc(Cl)cc2)c1C(=O)Nc1ccc(Cl)cc1", "UNIT TEXT": "%", "MEAS VALUE": -36}
{"MOLECULE": "CC1=C(Br)C(=O)C(c2c(C)cc(C)cc2C)=C(Br)C1=O", "UNIT TEXT": "%", "MEAS VALUE": 98.5}
{"MOLECULE": "Cc1ccc2cccnc2c1", "UNIT TEXT": "%", "MEAS VALUE": 5}
{"MOLECULE": "CC1(C)OC(CP(=O)(c2ccccc2)c2ccccc2)C(CP(=O)(c2ccccc2)c2ccccc2)O1 (stereo unspecified)", "UNIT TEXT": "%", "MEAS VALUE": 13.2}

Input line: What growth inhibition value was documented for this molecule, O=c1nc2oc(-c3ccccc3)cn2c(=O)n1-c1ncc(-c2ccccc2)o1 ?
Output line: 6.05

Input line: What growth inhibition value was documented for this molecule, C=CCOC(=O)Oc1ccc(Cl)cc1Cl ?
Output line: 18.5

Input line: What growth inhibition value was documented for this molecule, S=C1NC(c2ccccc2)Nc2ccccc21 (stereo unspecified) ?
Output line: 3.75

Input line: What growth inhibition value was documented for this molecule, O=C(Cn1nnc(N2CCCCC2)n1)N/N=C/c1ccccc1O ?
Output line: -29.3

Input line: What growth inhibition value was documented for this molecule, O=C(Nc1ccccc1[N+](=O)[O-])C(=O)Nc1ccccc1[N+](=O)[O-] ?
Output line: -0.25

Input line: What growth inhibition value was documented for this molecule, Cc1ccc(NC2=CC(=O)C(=O)c3ccccc32)cc1C ?
Output line: 26.5

Input line: What growth inhibition value was documented for this molecule, CN(C)c1ccc(/[N+]([O-])=C/C=C/C=[N+](/[O-])c2ccc(N(C)C)cc2)cc1 ?
Output line: -14.6

Input line: What growth inhibition value was documented for this molecule, CS(=O)(=O)OCC(O)C(O)C(OS(C)(=O)=O)C(O)COS(C)(=O)=O (stereo unspecified) ?
Output line: 7.35

* * *

# PROCEDURE TEXT: NCI Yeast Anticancer Drug Screen. Data for the sgs1 mgt1 strain (AID 161);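 further: 0% = growth of cultures given vehicle only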
# STUDY CONDITIONS: S. cerevisiae sgs1 mgt1 strain, at 50.0 µM
This is part of a sample that, as a whole, favours compounds with a hit. Of some 79,000 tested, about 15% had one in any assay. Calls of active or inactive are those of the source. Rule as the data show it: active = growth inhibition above about 70%; inactive = the rest.
// allowed return values: true (1) for active, false (0) for inactive

Reference set, count: 5
{"COMPOUND": "CC1CCCC(CCO)CC1 (stereo unspecified)", "GROUP LABEL": "false (0)"}
{"COMPOUND": "C/C(=N/NC(N)=O)C1CCC(C)CC1 (stereo unspecified)", "GROUP LABEL": "false (0)"}
{"COMPOUND": "Nc1nnc(-c2ccccc2)nn1", "GROUP LABEL": "false (0)"}
{"COMPOUND": "C#CC(OC(=O)NC(C(=O)OC)C(C)C)(c1ccccc1)c1ccccc1 (stereo unspecified)", "GROUP LABEL": "false (0)"}
{"COMPOUND": "CC(=O)/C(=C\\I)c1ccccc1", "GROUP LABEL": "true (1)"}

Input line: Which outcome was assigned to CCOC(=O)c1c([N+](=O)[O-])cnn1C1OC(COC(C)=O)C(OC(C)=O)C1OC(C)=O (stereo unspecified) in this test?
Output line: false (0)

* * *

The following compounds are listed with their measured growth inhibition values.
# PROCEDURE TEXT: NCI Yeast Anticancer Drug Screen. Data for the rad50 strain (AID 155);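 further: 0% = growth of vehicle-only cultures of the same strain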
# STUDY CONDITIONS: S. cerevisiae rad50 strain growth inhibition; at 50.0 µM; hits give high values
About 79,000 compounds went through this panel and 15% of them were active in at least one assay; those are over-represented in the sample as a whole.
Provide only the numeric value, understood in %.

{"COMPOUND": "CC1CCCC(C)(C)/C1=N/O (centres undefined)", "MEAS VALUE": 16.1}
{"COMPOUND": "O=c1cc(-c2ccccc2)c2ccc(O)cc2o1", "MEAS VALUE": -11.8}
{"COMPOUND": "O=C1c2ccccc2C(=O)c2c(O)c(Cc3ccccc3)cc(O)c21", "MEAS VALUE": 4.75}
{"COMPOUND": "N#Cc1ccc(/C=N\\NC(=O)CCSCCC(=O)N/N=C/c2ccc(C#N)cc2)cc1", "MEAS VALUE": 13.2}
{"COMPOUND": "CC(=O)Nc1ccc(S(=O)(=O)NC2(C)C(=O)N(C)C(=O)N(C)C2=O)cc1", "MEAS VALUE": 32.2}

Input line: What growth inhibition value was documented for this compound, CCC(C)CN1C(=O)NC(C)(Cc2ccccc2)C1=O (centres undefined) ?
Output line: 18.6

Input line: What growth inhibition value was documented for this compound, CC(=O)OC(C(=O)Nc1ccc(Br)cc1)c1ccccc1 (centres undefined) ?
Output line: 4.7

Input line: What growth inhibition value was documented for this compound, CC(=O)Oc1ccc2c(c1)C(=O)CCCCCC(=O)O2 ?
Output line: 19.2

Input line: What growth inhibition value was documented for this compound, NCCCCCS(=O)(=O)O ?
Output line: 17.4

Input line: What growth inhibition value was documented for this compound, Clc1ccc(C(Cl)(Cl)C(Cl)(Cl)Cl)cc1 ?
Output line: 6.65

Input line: What growth inhibition value was documented for this compound, Brc1cnc2nc(Cc3ccccc3)[nH]c2c1 ?
Output line: 5.05

Input line: What growth inhibition value was documented for this compound, O=C(O)C(CCCN1C(=O)c2ccccc2C1=O)N1C(=O)c2ccccc2C1=O (centres undefined) ?
Output line: -13.1
